- System: HT29 colon
- Protocol Text: NCI-60 one-dose screen, 48 h (100 = growth as untreated, 0 = no growth, -100 = all killed)
- Applied Conditions: 10 µM unless noted
Compounds without any hit were thinned out: in the full panel of roughly 83,000, 20% have a hit.
Cut-off 10% on growth: below means MET, at or above means NOT MET.

Sample answers from the record:
O=C(Nc1cc(Cl)cc(Cl)c1)Nc1ccc2oc(=O)ccc2c1 :: NOT MET
O=C(Nc1ccc(-c2nc(-c3cccc(O)c3)c(-c3ccnc(Br)c3)[nH]2)cc1)c1ccccc1 :: NOT MET
CC(=O)Nc1ccc(NC(=O)Nc2cccc(-c3nc(-c4ccc(NC(=O)c5cccs5)cc4Cl)no3)c2)cc1C(F)(F)F :: MET
CCCCOc1ccc(S(=O)(=O)N2CCN(c3nccc(N4CCOCC4)n3)CC2)cc1 :: NOT MET

# TODO verify growth < 10% strictly for this compound: CCN1C(=O)N(CC)C2SC(N/N=C/c3cccs3)=NC21 (stereo not drawn)
MET

Next compound up: CCN(CC)c1ccc2cc(C(=O)NCCOCCOCCOCCn3cc(CCC(=O)Nc4ccc(C(=O)c5ccc(NC(=O)OC(C)(C)C)cc5)cc4)nn3)c(=O)oc2c1
NOT MET

Next compound up: COc1cc2c3c(n(CCCNC4CCCC4)c(=O)c2cc1OC)-c1cc2c(cc1C3=O)OCO2
MET

Next compound up: C=C(C)C(=O)O[C@H]1C[C@@]2(C)OC(=CC2=O)/C(CO)=C\[C@H]2OC(=O)C(=C)[C@H]12
MET

* * *

- System: PC-3 prostate
- Protocol Text: NCI-60 one-dose screen, 48 h (100 = growth as untreated, 0 = no growth, -100 = all killed)
- Applied Conditions: 10 µM unless noted
The panel holds about 83,000 compounds, 20% with a hit somewhere; the sample as a whole holds those more often.
Catalogue of growth readings, one per entry.
Provide the reading as a plain figure in %.

Observe how each entry below is paired with its result.
Nc1c(C(=O)c2ccccc2)sc2nc(-c3cnccn3)cc(-c3cccs3)c12 :: 100
COc1ccc(/C=C/C(=O)c2nnn(-c3ccc(Br)cc3)c2C)cc1OC :: 75.3

Short answer please: growth, PC-3 prostate, entry CCOC(=O)C1=C(C)Nc2nnc(Nc3ccccc3)n2C1c1ccccc1 (stereo not drawn)
73.5

* * *

Catalogue of growth readings, one per entry.
- Test system: CAKI-1 renal
- Protocol Text: NCI-60 one-dose screen, 48 h (100 = growth as untreated, 0 = no growth, -100 = all killed)
- Applied Conditions: 10 µM
The panel holds about 83,000 compounds, 20% with a hit somewhere; the sample as a whole holds those more often.
Provide the reading as a plain figure in %.

CCCCCCNC(=O)Oc1ccc(/C(=C(/C)c2ccccc2)c2ccc(OCCN(C)C)cc2)cc1 :: 50.9
CCCCCCNC(=O)Oc1ccc(/C(=C(/C)c2ccc(OC)cc2)c2ccc(OCCN3CCCC3)cc2)cc1 :: 87

Sample O=C(Nc1cccc(-c2nc(-c3ccc(NC(=O)c4cccs4)cc3Cl)no2)c1)Nc1ccc(NC(=O)C2CC2)c(C(F)(F)F)c1 — what was its growth?
-67.7

Next molecule up: COc1cc(/C=N/n2cnc3oc(-c4ccccc4)cc3c2=N)cc(CN2CCN(C)CC2)c1O
73.3

Next molecule up: Oc1ccc(CSc2nnc(-c3ccc(Oc4ccccc4)cc3)o2)c2cccnc12
60.3
